# Test system: ubiquinone binding site of complex I (IQ)
# MEASUREMENT NOTES: High-throughput screen: ROS production from ubiquinone binding site of complex I (IQ), isolated skeletal muscle mitochondria
# Type: biochemical, rat
# MEASUREMENT PARAMETERS: Table 8; percent change in ROS from DMSO controls
TEST READOUT: IQ
In your answer, state the number alone without any accompanying words.

See these solved cases before continuing.
c1ccc(C2CCC(Nc3ccc4c(c3)OCO4)CC2)cc1 (centres unmarked) [Compound 77]
−18
CN(C)CCN(Cc1ccccc1)Cc1ccccc1Br [Compound 23]
−2.7
Cc1cc(OCC(O)CN(Cc2ccccc2)C(C)(C)C)ccc1[N+](=O)[O-] (centres unmarked) [Compound 82]
−2
Cc1ccc(C(C)C)c(OCC(O)CN2CCN(Cc3ccccc3)CC2)c1.Cl.Cl (centres unmarked) [Compound 21]
0.0

Entry Cc1ccc(NS(=O)(=O)c2ccc(C3CCCCC3)cc2)cc1 [Compound 6] , ubiquinone binding site of complex I (IQ) data, IQ value: −38.6

* * *

inhibition listing for selected molecules.
# TARGET DESC: glycerol-3-phosphate dehydrogenase (GPDH) (Rattus norvegicus, UniProt P35571)
# Construct: The activity of GPDH in intact mitochondria (0.3 mg/mL) was measured; from tissue; host or cells: rat skeletal muscle mitochondria (Wistar, Harlan Laboratories)
# MEASUREMENT NOTES: High-throughput screen: ROS production from glycerol-3-phosphate dehydrogenase (GPDH)
# Assay type: biochemical
# Set-up: dose or concentration left out as unconfirmed
# MEASUREMENT PARAMETERS: Table 7; percent change in ROS from DMSO controls
Expressed in %, but write only the number.

Please review the entries below; each comes with its answer.
O=C(Nc1ccccc1C(=O)O)c1ccccc1
0.6
Cc1ccc(CCSc2ccc(F)cc2)cn1
5.3

Memo: CC(C)Cc1ccc(C(C)C(=O)Nc2ccccc2O)cc1 (stereo not shown) , reported inhibition: -0.7

Summary for this molecule, CC(=O)Nc1ccc(-c2nc3ccccc3[nH]2)cc1 : inhibition is 4.4

Please fill in: inhibition reported for Cc1ccccc1NS(=O)(=O)c1ccc(C2CCCCC2)cc1 = -1

# molecule O=C(Nc1ccc(-c2nc3ccccc3[nH]2)cc1)C1CC1 ; its inhibition = -1.8

For record CCCCN(Cc1ccccc1)Cc1cc(Cl)cc(Cl)c1O the listed inhibition is -3.7

In plain terms, CCCN(CCO)Cc1ccc2c(c1)c1ccccc1n2CC has a documented inhibition of 2.5

// sample CCCCCCNC(=O)CCC(=O)O , its inhibition was -3.3

* * *

# TARGET DESC: flavin binding site of complex I (IF) (Rattus norvegicus)
# Construct: freshly isolated muscle mitochondria were assayed; from tissue; host or cells: rat skeletal muscle mitochondria (Wistar, Harlan Laboratories)
# MEASUREMENT NOTES: High-throughput screen: ROS production from flavin binding site of complex I (IF)
# Type: biochemical
# MEASUREMENT PARAMETERS: Table 3; 5 mM glutamate, 5 mM malate, 4 μM rotenone; compounds 2.5 μM; percent change from DMSO, positive control −100%; read-out: % Reduction in ROS production (IF)
Reported inhibition at 2.5 µM by item:
Numbers only here, please. The scale is %.

// below: answered molecules
CC1=CC(C)C(C2OCC(CN3CCCCC3)O2)C(C)C1 (stereo not shown) [Compound 13]
39
COc1ccccc1/C=C/c1nc(O)nc(O)c1[N+](=O)[O-] [Compound 16]
26.7
COc1ccc(NC(=S)NC(=O)c2ccco2)cc1 [Compound 75]
83

Value of inhibition at 2.5 µM reported for the molecule O=C(Nc1ccc(Br)cc1)[C@@H]1C2C=CC(C2)[C@@H]1C(=O)O (stereo partly shown) [Compound 28] is 19.1

inhibition at 2.5 µM reading for O=C(Nc1nn[nH]n1)C1CCCCC1 [Compound 76] : 34

Sample Cc1ccc(S(=O)(=O)Nc2nnc(C)s2)cc1 [Compound 27] ; inhibition at 2.5 µM observed: 19.6

The molecule listed as Cc1ccc(C(C)C)c(OCC(O)CN2CCN(Cc3ccccc3)CC2)c1.Cl.Cl (stereo not shown) [Compound 21] has a reported inhibition at 2.5 µM of 23

Noted for CN(C)CCN(Cc1ccccc1)Cc1ccc(C(F)(F)F)cc1 [Compound 29] : its inhibition at 2.5 µM reads 18.1

get_value(item= O=C(Nc1ccccc1C(=O)O)c1ccccc1 [Compound 18] , readout=inhibition at 2.5 µM) returns 25.8

Record O=C(O)C1CCCCC1C(=O)NC1CCCCCCC1 (stereo not shown) [Compound 30] . Reported inhibition at 2.5 µM: 36.9

* * *

# TARGET DESC: flavin binding site of complex I (IF) (Rattus norvegicus, UniProt Q5XIH3)
# Construct: freshly isolated muscle mitochondria were assayed; from tissue; host or cells: rat skeletal muscle mitochondria (Wistar, Harlan Laboratories)
# Sequence (Q5XIH3 21-464 limits assumed, one chain of several): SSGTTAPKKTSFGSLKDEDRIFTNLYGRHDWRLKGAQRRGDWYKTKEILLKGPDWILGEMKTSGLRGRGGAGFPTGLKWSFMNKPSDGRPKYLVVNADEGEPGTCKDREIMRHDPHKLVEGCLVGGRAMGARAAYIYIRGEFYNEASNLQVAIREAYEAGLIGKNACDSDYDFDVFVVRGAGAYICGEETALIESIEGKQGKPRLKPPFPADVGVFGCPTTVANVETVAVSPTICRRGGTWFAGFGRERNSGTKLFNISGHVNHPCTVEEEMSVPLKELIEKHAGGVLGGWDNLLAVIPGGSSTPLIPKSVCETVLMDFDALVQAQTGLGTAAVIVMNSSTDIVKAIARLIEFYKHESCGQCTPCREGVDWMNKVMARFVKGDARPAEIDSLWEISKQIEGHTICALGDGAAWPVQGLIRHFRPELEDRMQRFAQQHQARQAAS
# MEASUREMENT NOTES: High-throughput screen: ROS production from flavin binding site of complex I (IF)
# Format: biochemical
# MEASUREMENT PARAMETERS: Table 3; 5 mM glutamate, 5 mM malate, 4 μM rotenone; compounds 2.5 μM; percent change from DMSO, positive control −100%; read-out: % Reduction in ROS production (IF)
TEST READOUT: inhibition at 2.5 µM (%)
Hi! Could you send only the number? It should be in %, unit omitted.

For orientation, consider the following solved cases.
CN(C)CCCN(CCCN(C)C)Cc1cccnc1 [Compound 33]
3
CCC1CCCCN1C/C=C/c1ccc(N(C)C)cc1 (stereo not drawn) [Compound 80]
23

We next turn to a different compound, shown below.
compound CCN1CCN(C2CCC(C(C)(C)C)CC2)CC1 (stereo not drawn) [Compound 22] , inhibition at 2.5 µM observed: 22.1

* * *

# Tested on: ubiquinone binding site of complex I (IQ)
# MEASUREMENT NOTES: High-throughput screen: ROS production from ubiquinone binding site of complex I (IQ), isolated skeletal muscle mitochondria
# Format: biochemical, rat
# MEASUREMENT PARAMETERS: Table 9; percent change in ROS from DMSO controls
TEST READOUT: IQ
Form: value (number only, do not type unit).

Known results for compounds:
O=[N+]([O-])c1ccc(Oc2ccc(S(=O)(=O)Nc3ccc4c(c3)OCCO4)cc2)cc1
−50.6
COc1cccc(/C=C/C(=O)c2c(O)cc(C)oc2=O)c1O
−7.4
O=C(O)C1CCCCC1C(=O)NC1CCCCC1 (centres unmarked)
0.0

// IQ value for CN(C)CCCN(CCCN(C)C)Cc1cccnc1 : −0.5

Item: O=S(=O)(Nc1ccc(Br)cc1)c1ccc(C2CCCCC2)cc1 | IQ: −36.3

* * *

# TARGET DESC: glycerol-3-phosphate dehydrogenase (GPDH) (Rattus norvegicus, UniProt P35571)
# Construct: The activity of GPDH in intact mitochondria (0.3 mg/mL) was measured; from tissue; host or cells: rat skeletal muscle mitochondria (Wistar, Harlan Laboratories)
# Sequence (P35571 43-727): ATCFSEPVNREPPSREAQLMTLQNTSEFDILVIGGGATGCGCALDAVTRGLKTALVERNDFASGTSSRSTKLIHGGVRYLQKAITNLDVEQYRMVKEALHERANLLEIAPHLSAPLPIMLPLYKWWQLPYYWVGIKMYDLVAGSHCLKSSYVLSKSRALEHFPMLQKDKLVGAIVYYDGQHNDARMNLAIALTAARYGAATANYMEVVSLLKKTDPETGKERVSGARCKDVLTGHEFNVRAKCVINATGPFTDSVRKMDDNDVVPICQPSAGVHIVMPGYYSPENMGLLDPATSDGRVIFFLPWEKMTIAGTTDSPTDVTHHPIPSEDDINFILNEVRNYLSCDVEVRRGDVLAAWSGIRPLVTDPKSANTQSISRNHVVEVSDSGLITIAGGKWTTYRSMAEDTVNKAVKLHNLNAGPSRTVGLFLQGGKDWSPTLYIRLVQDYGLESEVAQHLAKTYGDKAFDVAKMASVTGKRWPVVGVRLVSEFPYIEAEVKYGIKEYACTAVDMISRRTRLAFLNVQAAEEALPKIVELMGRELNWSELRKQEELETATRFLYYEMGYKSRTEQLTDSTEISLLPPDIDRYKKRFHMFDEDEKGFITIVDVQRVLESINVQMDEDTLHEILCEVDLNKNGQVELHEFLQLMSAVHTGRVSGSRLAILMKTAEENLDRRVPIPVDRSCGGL
# MEASUREMENT NOTES: High-throughput screen: ROS production from glycerol-3-phosphate dehydrogenase (GPDH)
# Type: biochemical
# MEASUREMENT PARAMETERS: Table 7; percent change in ROS from DMSO controls
Items are presented alongside their recorded GPDH.

O=C(Nc1ccccc1[N+](=O)[O-])c1cccc(S(=O)(=O)Nc2ccccc2)c1
−2.4

Value of measured GPDH for the entry O=[N+]([O-])c1ccc(Oc2ccc(S(=O)(=O)Nc3ccc4c(c3)OCCO4)cc2)cc1 : −3.3

Lab note: measured GPDH of O=[N+]([O-])c1ccc(Oc2ccc(S(=O)(=O)Nc3ccc(F)cc3)cc2)cc1 was −0.2

Entry O=[N+]([O-])c1ccc(Oc2ccc(S(=O)(=O)NC3CCCCC3)cc2)cc1 , GPDH reported as 2.8
